biological target: PRMT6 (Homo sapiens); assay: radioactive assay (Reaction Biology Corp.), inhibition of PRMT6; format: biochemical
Sequence (Q96LA8 whole entry, species assumed): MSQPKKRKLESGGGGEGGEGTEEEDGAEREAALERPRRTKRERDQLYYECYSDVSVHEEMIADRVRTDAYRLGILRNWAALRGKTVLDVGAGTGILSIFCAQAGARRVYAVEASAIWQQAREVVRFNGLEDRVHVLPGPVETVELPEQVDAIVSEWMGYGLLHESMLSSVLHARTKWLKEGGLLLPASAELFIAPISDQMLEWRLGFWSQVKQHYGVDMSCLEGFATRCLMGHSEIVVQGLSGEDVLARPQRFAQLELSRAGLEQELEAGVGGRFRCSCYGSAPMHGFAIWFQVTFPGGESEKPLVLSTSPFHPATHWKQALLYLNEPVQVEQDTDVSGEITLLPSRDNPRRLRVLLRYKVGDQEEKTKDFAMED
ASSAY READOUT: inhibition at 10 µM (%)

{"COMPOUND": "Nc1ccc(-c2ccc(CNC(=O)NCCSC[C@H]3O[C@@H](n4cnc5c(N)ncnc54)[C@H](O)[C@@H]3O)cc2)cc1", "TARGET OR SYSTEM": "PRMT6 (Homo sapiens)", "READING": 72}
{"COMPOUND": "Nc1ncnc2c1ncn2[C@@H]1O[C@H](CSCCCNCc2cccc(-c3ccoc3)c2)[C@@H](O)[C@H]1O [Compound 10p]", "TARGET OR SYSTEM": "PRMT6 (Homo sapiens)", "READING": 66}
{"COMPOUND": "Nc1ncnc2c1ncn2[C@@H]1O[C@H](CSCCCNCc2cccc(-c3ccc(O)cc3)c2)[C@@H](O)[C@H]1O [Compound 10n]", "TARGET OR SYSTEM": "PRMT6 (Homo sapiens)", "READING": 36}

a. Nc1ncnc2c1ncn2[C@@H]1O[C@H](CSCCNC(=O)NCc2ccc3cnccc3c2)[C@@H](O)[C@H]1O
b. COc1cc2nc(-c3ccc(C(F)(F)F)cc3)nc(NCCSC[C@H]3O[C@@H](n4cnc5c(N)ncnc54)[C@H](O)[C@@H]3O)c2cc1OC [Compound 12e]
# input So which one has the bigger inhibition at 10 µM here, a or b ? Give the label of your selection.
# output b

====

Target: UniProtKB Q86X55
Sequence (Q86X55 1-608): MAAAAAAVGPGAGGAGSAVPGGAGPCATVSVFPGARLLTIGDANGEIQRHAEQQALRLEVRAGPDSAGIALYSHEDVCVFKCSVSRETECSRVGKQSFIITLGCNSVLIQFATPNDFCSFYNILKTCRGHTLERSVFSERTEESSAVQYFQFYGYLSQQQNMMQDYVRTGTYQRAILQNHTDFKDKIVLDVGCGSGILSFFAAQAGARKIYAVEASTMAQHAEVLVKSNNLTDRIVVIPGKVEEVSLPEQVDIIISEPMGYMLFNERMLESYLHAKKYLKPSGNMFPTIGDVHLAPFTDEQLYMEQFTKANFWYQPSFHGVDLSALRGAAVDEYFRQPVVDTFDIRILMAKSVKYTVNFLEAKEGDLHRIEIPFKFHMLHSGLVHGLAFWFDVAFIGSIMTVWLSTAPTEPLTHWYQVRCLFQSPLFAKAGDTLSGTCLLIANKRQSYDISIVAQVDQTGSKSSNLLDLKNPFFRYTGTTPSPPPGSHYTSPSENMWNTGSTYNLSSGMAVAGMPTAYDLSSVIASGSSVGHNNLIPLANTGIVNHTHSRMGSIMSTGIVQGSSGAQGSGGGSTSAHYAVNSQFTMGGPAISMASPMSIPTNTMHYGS
Experiment: radioactive assay (Reaction Biology Corp.), inhibition of PRMT4
Format: biochemical
Protocol: Next, the inhibition activity of the library was investigated for five PRMT members from type I PRMTs. The PRMT 4, 6 and 8 methylation assays were performed by Reaction Biology corp.
ASSAY READOUT: inhibition at 10 µM (%)

{"COMPOUND": "N=C(NCCCSC[C@H]1O[C@@H](n2cnc3c(N)ncnc32)[C@H](O)[C@@H]1O)Nc1cccc(-c2cccc([N+](=O)[O-])c2)c1", "TARGET OR SYSTEM": "UniProtKB Q86X55", "inhibition at 10 µM [%]": 100}
{"COMPOUND": "N=C(NCCCSC[C@H]1O[C@@H](n2cnc3c(NCCCc4ccccc4)ncnc32)[C@H](O)[C@@H]1O)NCCCc1ccccc1 [Compound 19m]", "TARGET OR SYSTEM": "UniProtKB Q86X55", "inhibition at 10 µM [%]": 58}

a. N=C(NCCCSC[C@H]1O[C@@H](n2cnc3c(N)ncnc32)[C@H](O)[C@@H]1O)Nc1cccc(-c2ccc3c(c2)OCCO3)c1
b. N=C(NCCCSC[C@H]1O[C@@H](n2cnc3c(NCCCc4ccccc4)ncnc32)[C@H](O)[C@@H]1O)NCC1CCC1
# input Lab log: flag the item ( a or b ) with the smaller inhibition at 10 µM figure. Refer to your chosen item by its label in the answer.
# output b
(b: 44%, a: 100%)

I. N=C(NCCCSC[C@H]1O[C@@H](n2cnc3c(N)ncnc32)[C@H](O)[C@@H]1O)Nc1cccc(-c2ccc(F)cc2F)c1
II. N=C(NCCCSC[C@H]1O[C@@H](n2cnc3c(NCCCc4ccccc4)ncnc32)[C@H](O)[C@@H]1O)NCc1ccccc1 [Compound 19k]
# input Among I and II , which shows a numerically higher inhibition at 10 µM result? Your answer should be the label attached to the chosen record.
# output I

A. Nc1ncnc2c1ncn2[C@@H]1O[C@H](CSCCNC(=O)Nc2ccccc2Br)[C@@H](O)[C@H]1O
B. COc1cc2nc(-c3ccc(F)c(O)c3)nc(NCCSC[C@H]3O[C@@H](n4cnc5c(N)ncnc54)[C@H](O)[C@@H]3O)c2cc1OC [Compound 12f]
# input Look at A and B . Which one has the lower recorded inhibition at 10 µM number? Kindly give the label for the entry you pick.
# output B
(B: 51%, A: 81%)

P. N=C(NCCCSC[C@H]1O[C@@H](n2cnc3c(N)ncnc32)[C@H](O)[C@@H]1O)Nc1cccc(-c2ccc(C(F)(F)F)cc2)c1
Q. COc1cc2nc(-c3ccccc3O)nc(NCCSC[C@H]3O[C@@H](n4cnc5c(N)ncnc54)[C@H](O)[C@@H]3O)c2cc1OC [Compound 12h]
# input Returns: the label, P or Q , whose recorded inhibition at 10 µM is the lower number. Answer with the label corresponding to your selection.
# output Q
(Q: 36%, P: 100%)

====

target: PRMT8 (Homo sapiens); experiment: radioactive assay (Reaction Biology Corp.), inhibition of PRMT8; assay type: biochemical
Sequence (Q9NR22 whole entry, species assumed): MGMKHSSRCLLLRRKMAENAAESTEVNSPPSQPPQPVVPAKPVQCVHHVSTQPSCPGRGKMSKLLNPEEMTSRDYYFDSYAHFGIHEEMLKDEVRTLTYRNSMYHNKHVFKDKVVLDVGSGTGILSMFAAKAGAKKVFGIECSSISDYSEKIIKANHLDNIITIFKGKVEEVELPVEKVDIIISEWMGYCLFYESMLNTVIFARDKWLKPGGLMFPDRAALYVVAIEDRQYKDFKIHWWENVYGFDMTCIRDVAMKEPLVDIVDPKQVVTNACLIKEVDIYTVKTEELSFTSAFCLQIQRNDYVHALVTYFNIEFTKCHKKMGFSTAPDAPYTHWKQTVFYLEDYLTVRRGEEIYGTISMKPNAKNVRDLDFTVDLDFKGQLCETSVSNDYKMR
ASSAY READOUT: inhibition at 10 µM (%)

{"MOLECULE": "Nc1ncnc2c1ncn2[C@@H]1O[C@H](CSCCOc2ccc(-c3ccoc3)cc2)[C@@H](O)[C@H]1O [Compound 14c]", "TARGET OR SYSTEM": "PRMT8 (Homo sapiens)", "READING": 39}
{"MOLECULE": "CCCCNC(=N)NCCCSC[C@H]1O[C@@H](n2cnc3c(NCCCc4ccccc4)ncnc32)[C@H](O)[C@@H]1O [Compound 19a]", "TARGET OR SYSTEM": "PRMT8 (Homo sapiens)", "READING": 85}

a. N=C(NCCCSC[C@H]1O[C@@H](n2cnc3c(N)ncnc32)[C@H](O)[C@@H]1O)Nc1cccc(-c2ccc(C(F)(F)F)cc2)c1
b. COc1cc2nc(-c3ccoc3)nc(NCCSC[C@H]3O[C@@H](n4cnc5c(N)ncnc54)[C@H](O)[C@@H]3O)c2cc1OC [Compound 12d]
# input Would you kindly point out which of a and b has the smaller inhibition at 10 µM figure? Pick one; state its label.
# output b
(b: 25%, a: 99%)

P. N=C(NCCSC[C@H]1O[C@@H](n2cnc3c(N)ncnc32)[C@H](O)[C@@H]1O)Nc1cccc(-c2ccoc2)c1
Q. Nc1ncnc2c1ncn2[C@@H]1O[C@H](CSCCOc2ccc(-c3cncnc3)cc2)[C@@H](O)[C@H]1O [Compound 14e]
R. Nc1ncnc2c1ncn2[C@@H]1O[C@H](CSCCCNC(=O)NCc2ccccc2)[C@@H](O)[C@H]1O
# input # sort list by recorded inhibition at 10 µM, greatest to least Reply with the item labels sorted in the order that was asked for.
# output P, Q, R
(P: 82%, Q: 28%, R: 12%)

P. N=C(NCCCSC[C@H]1O[C@@H](n2cnc3c(N)ncnc32)[C@H](O)[C@@H]1O)Nc1cccc(-c2ccc(Cl)cc2)c1
Q. Nc1ncnc2c1ncn2[C@@H]1O[C@H](CSCCNCc2cccc(-c3ccc(C(F)(F)F)cc3)c2)[C@@H](O)[C@H]1O [Compound 10e]
R. Nc1ncnc2c1ncn2[C@@H]1O[C@H](CSCCNC(=O)Nc2ccccc2Br)[C@@H](O)[C@H]1O
# input // ascending sort on recorded inhibition at 10 µM I'd appreciate it if you listed the labels in the requested order.
# output R, Q, P
(R: 13%, Q: 67%, P: 100%)

A. N=C(NCCCSC[C@H]1O[C@@H](n2cnc3c(NCCCc4ccccc4)ncnc32)[C@H](O)[C@@H]1O)NCCc1ccccc1 [Compound 19l]
B. Nc1ncnc2c1ncn2[C@@H]1O[C@H](CSCCNCc2cccc(-c3cccc4cn[nH]c34)c2)[C@@H](O)[C@H]1O [Compound 10h]
# input Quick check, higher inhibition at 10 µM between A and B ? Answer with the label corresponding to your selection.
# output A
(A: 87%, B: 58%)

====

target: PRMT6 (Homo sapiens); experiment: radioactive assay (Reaction Biology Corp.), inhibition of PRMT6; format: biochemical
ASSAY READOUT: inhibition at 10 µM (%)

A. Nc1ncnc2c1ncn2[C@@H]1O[C@H](CSCCNC(=O)NCc2ccc(-c3cccc(O)c3)cc2)[C@@H](O)[C@H]1O
B. Nc1ncnc2c1ncn2[C@@H]1O[C@H](CSCCNCc2cccc(-c3ccc(C(F)(F)F)cc3)c2)[C@@H](O)[C@H]1O [Compound 10e]
# input Looking at recorded values for inhibition at 10 µM, does A or B come in lower? Your choice should be expressed through its label.
# output B

The origin of these recorded values is patent US20260306527A1.
